Data origin, for the record: patent US20240400708A1

SYSTEM_UNDER_TEST: feline FcRn complex (FcRn-α subunit and β-microglobulin), biotin labeled (feline)
ASSAY_SUMMARY: SPR, pH 6
READOUT_LABEL: Kd

For orientation, consider the following solved cases.
feline IgG1a T250S (antibody, part only; not given: Variable domains, not shown: another chain or arm of the molecule) constant: ASTTAPSVFPLAPSCGTTSGATVALACLVLGYFPEPVTVSWNSGALTSGVHTFPAVLQASGLYSLSSMVTVPSSRWLSDTFTCNVAHPPSNTKVDKTVRKTDHPPGPKPCDCPKCPPPEMLGGPSIFIFPPKPKDSLSISRTPEVTCLVVDLGPDDSDVQITWFVDNTQVYTAKTSPREEQFNSTYRVVSVLPILHQDWLKGKEFKCKVNSKSLPSPIERTISKAKGQPHEPQVYVLPPAQEELSRNKVSVTCLIKSFHPPDIAVEWEITGQPEPENNYRTTPPQLDSDGTYFVYSKLSVDRSHWQRGNTYTCSVSHEALHSHHTQKSLTQSPGK    4.94 nM
feline IgG1a A378L (antibody, part only; not given: Variable domains, not shown: another chain or arm of the molecule) constant: ASTTAPSVFPLAPSCGTTSGATVALACLVLGYFPEPVTVSWNSGALTSGVHTFPAVLQASGLYSLSSMVTVPSSRWLSDTFTCNVAHPPSNTKVDKTVRKTDHPPGPKPCDCPKCPPPEMLGGPSIFIFPPKPKDTLSISRTPEVTCLVVDLGPDDSDVQITWFVDNTQVYTAKTSPREEQFNSTYRVVSVLPILHQDWLKGKEFKCKVNSKSLPSPIERTISKAKGQPHEPQVYVLPPAQEELSRNKVSVTCLIKSFHPPDILVEWEITGQPEPENNYRTTPPQLDSDGTYFVYSKLSVDRSHWQRGNTYTCSVSHEALHSHHTQKSLTQSPGK    34.7 nM
feline IgG1a Q311M (antibody, part only; not given: Variable domains, not shown: another chain or arm of the molecule) constant: ASTTAPSVFPLAPSCGTTSGATVALACLVLGYFPEPVTVSWNSGALTSGVHTFPAVLQASGLYSLSSMVTVPSSRWLSDTFTCNVAHPPSNTKVDKTVRKTDHPPGPKPCDCPKCPPPEMLGGPSIFIFPPKPKDTLSISRTPEVTCLVVDLGPDDSDVQITWFVDNTQVYTAKTSPREEQFNSTYRVVSVLPILHMDWLKGKEFKCKVNSKSLPSPIERTISKAKGQPHEPQVYVLPPAQEELSRNKVSVTCLIKSFHPPDIAVEWEITGQPEPENNYRTTPPQLDSDGTYFVYSKLSVDRSHWQRGNTYTCSVSHEALHSHHTQKSLTQSPGK    4.97 nM

Alright, here's another binder for you.
Q: What Kd value was documented for this binder, feline IgG1a T437R (antibody, part only; not given: variable domains and light chain, not shown: another chain or arm of the molecule) constant: ASTTAPSVFPLAPSCGTTSGATVALACLVLGYFPEPVTVSWNSGALTSGVHTFPAVLQASGLYSLSSMVTVPSSRWLSDTFTCNVAHPPSNTKVDKTVRKTDHPPGPKPCDCPKCPPPEMLGGPSIFIFPPKPKDTLSISRTPEVTCLVVDLGPDDSDVQITWFVDNTQVYTAKTSPREEQFNSTYRVVSVLPILHQDWLKGKEFKCKVNSKSLPSPIERTISKAKGQPHEPQVYVLPPAQEELSRNKVSVTCLIKSFHPPDIAVEWEITGQPEPENNYRTTPPQLDSDGTYFVYSKLSVDRSHWQRGNTYTCSVSHEALHSHHRQKSLTQSPGK ?
Result: 6.85 nM
